Numbers sourced from ChEMBL document CHEMBL5390270.

# System: J774.2
# procedure-summary: Antiproliferative activity against LPS-stimulated mouse J774.2 cells assessed as reduction in cell viability at 1 to 5 ug/mL incubated for 1 day by trypan blue staining analysis
# Type: functional, cell-based
# measurement-parameters: dose 1-5 µg/ml
Activity calls are given as the source filed them. The calls are words filed in the database; no cut-off is given here.
quantity-kind: Activity

Given the entry `NC1=C(n2c(-c3ccc(Cl)cc3)cs/c2=N\C(=O)c2ccc(Cl)c([N+](=O)[O-])c2)C(=O)c2ccccc2C1=O` , what Activity was observed with J774.2? inactive

# repeat for `NC1=C(n2c(-c3ccc(Br)cc3)cs/c2=N\C(=O)c2ccc(Cl)c([N+](=O)[O-])c2)C(=O)c2ccccc2C1=O` inactive

# repeat for `NC1=C(n2c(-c3ccc(Br)cc3)cs/c2=N\C(=O)c2ccc([N+](=O)[O-])cc2)C(=O)c2ccccc2C1=O` inactive

# repeat for `NC1=C(n2c(-c3ccc(F)cc3)cs/c2=N\C(=O)c2cccc([N+](=O)[O-])c2)C(=O)c2ccccc2C1=O` inactive

# repeat for `NC1=C(n2c(-c3ccc(Cl)cc3)cs/c2=N\C(=O)c2cccc([N+](=O)[O-])c2)C(=O)c2ccccc2C1=O` inactive

Continuing:
Given the entry `NC1=C(n2c(-c3ccccc3)cs/c2=N\C(=O)c2ccc([N+](=O)[O-])cc2)C(=O)c2ccccc2C1=O` , what Activity was observed with J774.2? inactive

# repeat for `NC1=C(n2c(-c3ccc(F)cc3)cs/c2=N\C(=O)c2ccc([N+](=O)[O-])cc2)C(=O)c2ccccc2C1=O` inactive

# repeat for `NC1=C(n2c(-c3ccc(Cl)cc3)cs/c2=N\C(=O)c2ccc([N+](=O)[O-])cc2)C(=O)c2ccccc2C1=O` inactive

# repeat for `NC1=C(n2c(-c3ccc(F)cc3)cs/c2=N\C(=O)c2ccc(Cl)c([N+](=O)[O-])c2)C(=O)c2ccccc2C1=O` inactive

# repeat for `NC1=C(n2c(-c3ccc(Br)cc3)cs/c2=N\C(=O)c2cccc([N+](=O)[O-])c2)C(=O)c2ccccc2C1=O` inactive

# repeat for `NC1=C(n2c(-c3ccccc3)cs/c2=N\C(=O)c2cccc([N+](=O)[O-])c2)C(=O)c2ccccc2C1=O` inactive

# repeat for `NC1=C(n2c(-c3ccccc3)cs/c2=N\C(=O)c2ccc(Cl)c([N+](=O)[O-])c2)C(=O)c2ccccc2C1=O` inactive
